# Test system: IGROV-1
# assayDetails: NCI tumour cell line growth inhibition, 48 h
The source made the active and inactive calls. No stated cut-off is given here; in the data, active = GI50 up to about 1.1 µM and inactive = higher.
Could you please pick one outcome from this set? T for active, F for inactive

Problem: Fill in: this test's call for N#Cc1c([N+](=O)[O-])cc(C(F)(F)F)cc1[N+](=O)[O-] is ___
Result: F

Problem: Fill in: this test's call for COc1cccc(C2CC(C)(O)Oc3cc4c(cc32)OCO4)c1 (stereo unspecified) is ___
Result: F

Problem: Fill in: this test's call for CCCCCCCCCCCCCCCCCc1cccc(OCOCCOC)c1C(=O)O is ___
Result: F

Problem: Fill in: this test's call for COc1ccc(C2NC3=C(CCCC3)C3(C#N)C(=O)N=C(N)C23C#N)cc1 (stereo unspecified) is ___
Result: F

Problem: Fill in: this test's call for O=C(c1ccccc1)c1nc2ccc(Cl)cc2cc1C(Br)Br is ___
Result: T

Problem: Fill in: this test's call for O=C(CCN(C(=O)O)S(=O)(=O)c1ccc(NC(=O)c2ccccc2)cc1)Nc1ccccc1 is ___
Result: F

---

# Tested on: SF-295
# assayDetails: NCI tumour cell line growth inhibition, 48 h
Activity calls are given as the source filed them. No stated cut-off is given here; in the data, active = GI50 up to about 1.1 µM and inactive = higher.
For each record, write down the corresponding GI50.

Problem: If you can, please state the reported GI50 value of N#Cc1nc2ccccc2nc1N1CCN(c2ccc([N+](=O)[O-])cc2)CC1 .
Result: > 100 µM (inactive)

Problem: If you can, please state the reported GI50 value of COc1ccc(C(OCC2OC(n3ccc(Oc4c(F)c(F)c(F)c(F)c4F)nc3=O)CC2OP(OCCC#N)N(C(C)C)C(C)C)(c2ccccc2)c2ccc(OC)cc2)cc1 (stereo unspecified) .
Result: > 100 µM (inactive)

Problem: If you can, please state the reported GI50 value of CC12CCC(C(=O)OC1=O)C2(C)C (stereo unspecified) .
Result: > 100 µM (inactive)

Problem: If you can, please state the reported GI50 value of CC(C)OC(=O)c1ccc(NCC2=CC(=O)C=CC2=O)cc1Cl .
Result: 17.8 µM (inactive)

Problem: If you can, please state the reported GI50 value of Cc1cc2c(cc1C)[n+]([O-])c(C(F)(F)F)c(C(=O)c1ccccc1)[n+]2[O-] .
Result: 2.4 µM (inactive)

Problem: If you can, please state the reported GI50 value of CN(C)/C=N/c1nc2c(ncn2C2OC(CO)C(O)C2O)c(=O)[nH]1 (stereo unspecified) .
Result: > 100 µM (inactive)

Problem: If you can, please state the reported GI50 value of O=c1[nH][nH]c(=O)n1Cc1ccccc1Cn1c(=O)[nH][nH]c1=O .
Result: > 100 µM (inactive)

Problem: If you can, please state the reported GI50 value of O=C(c1ccccc1)N(CCCCNC(=O)C(F)(F)F)CCCNC(=O)C(F)(F)F .
Result: > 100 µM (inactive)

Problem: If you can, please state the reported GI50 value of Oc1ccc(O)c(Sc2nnc(CCCCCCCCc3nnc(Sc4cc(O)ccc4O)o3)o2)c1 .
Result: > 100 µM (inactive)

Problem: If you can, please state the reported GI50 value of CN1C(c2ccccc2)CC(=Nc2ccccc2)CC1c1ccccc1 (stereo unspecified) .
Result: 15.6 µM (inactive)

Problem: If you can, please state the reported GI50 value of C/C(=N\NC(=O)c1ccccc1O)c1cccc(/C(C)=N/NC(=O)c2ccccc2O)n1.[Cl-].[Cl-].[Zn+2] .
Result: 9.98 µM (inactive)
